Assay: ATG_MRE_CIS: Attagene CIS-FACTORIAL HepG2 Assay for human Metal Responsive Element (MRE) (AID 2282954)
Settings: HepG2 MRE cis-reporter transcription, Attagene multiplex; actives raise or lower the signal
Calls of active or inactive are those of the source. How the source made its calls: active means hit-call score of the fitted dose curve at least 0.9, where 1 is the maximum; inactive means score below 0.9.
// one of Yes (active), No (inactive), no free text

SCc1ccco1 :: No
C=CCO :: No
CC[N+](=O)[O-] :: No
O=[N+]([O-])C=Cc1ccccc1 :: Yes
O=C(O)COc1ccccc1 :: No
CC(C)(O)C#N :: No

Query: Given NNc1ccccc1 , state the outcome it received in this test.
Response: No

Query: Given COc1cc(OC)nc(Oc2cccc(Oc3nc(OC)cc(OC)n3)c2C(=O)O)n1 , state the outcome it received in this test.
Response: No

Query: Given Cc1ccc(OP(=O)(Oc2ccc(C)cc2)Oc2ccc(C)cc2)cc1 (tested in a mixture with another compound) , state the outcome it received in this test.
Response: No

Query: Given COC(=O)COc1ccc(Cl)cc1Cl , state the outcome it received in this test.
Response: No

Query: Given c1ccc(Nc2ccc3ccccc3c2)cc1 , state the outcome it received in this test.
Response: No

Query: Given Oc1ccc(Cl)cc1 , state the outcome it received in this test.
Response: No

Query: Given O=S(=O)(O)O , state the outcome it received in this test.
Response: No

Query: Given COc1cc(OC)c(OC)cc1C=O , state the outcome it received in this test.
Response: No

Query: Given Cc1ccc(N(SC(F)(Cl)Cl)S(=O)(=O)N(C)C)cc1 , state the outcome it received in this test.
Response: Yes

---

Target: Norway rat Vesicular Monoamine Transporter (VMAT2), neurotransmitter transporter, Slc18a2 (gene 25549) (UniProt Q01827)
Sequence (Q01827 whole entry, looked up): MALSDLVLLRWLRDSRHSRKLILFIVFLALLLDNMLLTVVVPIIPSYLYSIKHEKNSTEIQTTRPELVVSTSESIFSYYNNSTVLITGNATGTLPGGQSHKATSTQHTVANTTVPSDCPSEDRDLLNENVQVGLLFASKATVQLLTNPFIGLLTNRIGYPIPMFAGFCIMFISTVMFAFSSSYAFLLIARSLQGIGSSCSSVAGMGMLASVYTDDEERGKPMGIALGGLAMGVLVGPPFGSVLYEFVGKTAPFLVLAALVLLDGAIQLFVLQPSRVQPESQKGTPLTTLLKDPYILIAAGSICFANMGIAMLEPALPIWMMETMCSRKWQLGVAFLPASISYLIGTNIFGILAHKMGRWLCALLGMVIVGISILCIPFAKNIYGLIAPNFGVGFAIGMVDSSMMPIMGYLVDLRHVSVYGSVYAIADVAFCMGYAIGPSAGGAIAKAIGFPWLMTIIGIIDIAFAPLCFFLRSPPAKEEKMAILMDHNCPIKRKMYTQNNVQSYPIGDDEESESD
Assay: NVS_TR_rVMAT2: NovaScreen (NVS) Transporter Assay for Norway rat Vesicular Monoamine Transporter (VMAT2), neurotransmitter transporter (AID 2283376);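 further: actives lower the bound radioligand signal below the DMSO level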
Experimental: NVS_TR_rVMAT2 is a biochemical, single-readout assay that uses extracted gene-proteins from Rat forebrain in a tissue-based cell-free assay. Measurements were taken 1 hour after chemical dosing in a 96-well plate.NVS_TR_rVMAT2 is one of one assay component(s) measured or calculated from the NVS_TR_rVMAT2 assay. […] This assay endpoint, NVS_TR_rVMAT2, was analyzed in the positive analysis fitting direction relative to DMSO as the negative control and baseline of activity. […]
Records with an inconclusive call do not appear. Calls of active or inactive are those of the source. How the source made its calls: active means hit-call score of the fitted dose curve at least 0.9, where 1 is the maximum; inconclusive means response in the unintended direction; inactive means score below 0.9.
// one of TRUE for active, FALSE for inactive, no free text

Query: Given CS(=O)(=O)c1ccc(C2=C(c3ccccc3)C(=O)OC2)cc1 , state the outcome it received in this test.
Response: TRUE

---

Target: Nuclear receptor subfamily 4 group A member 2 (Homo sapiens) (UniProt P43354)
Sequence (P43354 whole entry, looked up): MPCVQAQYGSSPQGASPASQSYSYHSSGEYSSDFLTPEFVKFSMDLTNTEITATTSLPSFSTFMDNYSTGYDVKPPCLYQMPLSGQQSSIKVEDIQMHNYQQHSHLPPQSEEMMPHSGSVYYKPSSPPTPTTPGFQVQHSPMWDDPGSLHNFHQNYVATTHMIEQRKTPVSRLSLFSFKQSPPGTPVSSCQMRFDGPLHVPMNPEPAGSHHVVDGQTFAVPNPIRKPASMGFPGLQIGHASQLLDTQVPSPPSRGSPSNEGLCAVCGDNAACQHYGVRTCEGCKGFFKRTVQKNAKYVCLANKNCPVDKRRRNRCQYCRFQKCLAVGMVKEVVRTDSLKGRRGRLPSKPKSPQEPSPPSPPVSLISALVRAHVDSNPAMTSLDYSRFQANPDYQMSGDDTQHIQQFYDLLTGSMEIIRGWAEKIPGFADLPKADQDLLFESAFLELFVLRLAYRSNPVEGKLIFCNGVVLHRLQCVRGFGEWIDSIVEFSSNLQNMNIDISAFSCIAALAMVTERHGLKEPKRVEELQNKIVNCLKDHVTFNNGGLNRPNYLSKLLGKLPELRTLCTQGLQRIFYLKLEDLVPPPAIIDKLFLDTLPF
Experiment: ATG_NURR1_TRANS: Attagene TRANS-FACTORIAL HepG2 Assay for human Nuclear Receptor Related Protein 1 (NURR1) (AID 2282985)
Conditions: HepG2 Attagene TRANS reporter, mRNA readout
Experimental: ATG_TRANS is a cell-based, multiplexed-readout assay that uses HepG2, a human liver cell line, with measurements taken at 24 hours after chemical dosing in a 24-well plate.ATG_NURR1_TRANS is one of 30 assay component(s) measured or calculated from the ATG_TRANS assay. […] This assay endpoint, ATG_NURR1_TRANS, was analyzed in the positive analysis fitting direction relative to DMSO as the negative control and baseline of activity. […]
Inconclusive results are not listed. The source made the active and inactive calls. The calls were made as follows: active = hit-call score of the fitted dose curve at least 0.9, where 1 is the maximum; inconclusive = response in the unintended direction; inactive = score below 0.9.
readout: outcome

Previously resolved entries follow.
C=Cc1cccc(CCl)c1 :: inactive
CC(=O)C=Cc1ccccc1 :: inactive
CN(C)C(=O)C(c1ccccc1)c1ccccc1 :: inactive
CCOP(O)OCC :: inactive
CC1(C)[C@H](C(=O)O[C@H](C#N)c2cccc(Oc3ccccc3)c2)[C@@H]1C=C(Br)Br :: inactive

Query: Data request, read-out outcome, for CC1(C)CC(=O)CC(C)(C)N1[O]
Response: inactive

Query: Data request, read-out outcome, for CCC(=O)c1ccc(Cl)cc1
Response: inactive

Query: Data request, read-out outcome, for O=[N+]([O-])O.O=[N+]([O-])O.[Cd]
Response: inactive

Query: Data request, read-out outcome, for C=C(Cl)Cl
Response: inactive

Query: Data request, read-out outcome, for Nc1cc(Cl)cc(Cl)c1
Response: inactive

Query: Data request, read-out outcome, for Oc1ccc(C2(c3ccc(O)cc3)c3ccccc3-c3ccccc32)cc1
Response: inactive

Query: Data request, read-out outcome, for COC(=O)c1ccccc1S(=O)(=O)NC(=O)Nc1nc(C)cc(C)n1
Response: inactive
